Entries and their measured IC50 follow.
System: MCF-7 cells
Experiment: Breast cancer cell viability assay (CellTiter-Glo, 5 days)
Type: cell-based
Conditions: Homo sapiens, MCF7, 120 h, 5 days' compound exposure

Use the examples below as a reference point.
• CC/C(=C(/c1ccc(/C=C/C(=O)O)cc1)c1ccc2[nH]ncc2c1)c1ccc(Oc2ccccc2)c(C)c1 = ≤ 0.1 µM
• CC/C(=C(/c1ccc(/C=C/C(=O)O)cc1)c1ccc2[nH]ncc2c1)c1cnnn1C = > 0.1 µM
• CC/C(=C(/c1ccc(/C=C/C(=O)O)cc1)c1cc(F)c2[nH]ccc2c1)c1ccc(F)cc1Cl = ≤ 0.1 µM
• CC/C(=C(/c1ccc(/C=C/C(=O)O)cc1)c1ccc2[nH]ncc2c1F)c1cccc(Oc2cnccn2)c1 = ≤ 0.1 µM

Prompt: What does the data say about its IC50? Entry: CC/C(=C(/c1ccc(/C=C/C(=O)O)cc1)c1cc2cn[nH]c2cn1)c1ccccc1
Completion: > 0.1 µM

Prompt: Query CC/C(=C(/c1ccc(/C=C/C(=O)O)cc1)c1ccc2[nH]ncc2c1)c1ccc2nccn2c1 next
Completion: > 0.1 µM

Prompt: Then what about the compound CC/C(=C(/c1ccc(/C=C/C(=O)O)cc1)c1ccc2[nH]c(=O)oc2c1)c1ccccc1 ?
Completion: ≤ 0.1 µM

====

Documented IC50 across a set of compounds
Test system: MCF-7 cells
Experiment: Breast cancer cell viability assay (CellTiter-Glo, 5 days)
Assay type: cell-based
Details: Homo sapiens, MCF7, 120 h, 5 days' compound exposure

Below, each entry is followed by its recorded IC50 result.
* CC/C(=C(/c1ccc(/C=C/C(=O)O)cc1)c1cccc2[nH]c(=O)ccc12)c1ccccc1 | > 100 nM
* CC/C(=C(/c1ccc(/C=C/C(=O)O)cc1)c1ccc2[nH]ncc2c1)c1cccc(Oc2cccc(S(C)(=O)=O)c2)c1 | ≤ 100 nM
* CC/C(=C(/c1ccc(/C=C/C(=O)O)cc1)c1ccc2[nH]ncc2c1)c1ccc(-n2cccn2)cc1 | > 100 nM
* O=C(O)/C=C/c1ccc(/C(=C(\c2ccc(F)cc2Cl)C2CCC2)c2ccc3nccn3c2)cc1 | ≤ 100 nM
* CC/C(=C(/c1ccc(/C=C/C(=O)O)cc1)c1ccc2c(c1)OCO2)c1ccccc1 | > 100 nM
* CC/C(=C(/c1ccc(/C=C/C(=O)O)cc1)c1ccc2[nH]ncc2c1)c1ccsc1C | ≤ 100 nM
* CC/C(=C(/c1ccc(/C=C/C(=O)O)cc1)c1ccn2cncc2c1)c1ccccc1 | ≤ 100 nM
* CC/C(=C(/c1ccc(/C=C/C(=O)O)cc1)c1cccc2[nH]nnc12)c1ccc(F)cc1Cl | ≤ 100 nM
* CC/C(=C(/c1ccc(/C=C/C(=O)O)cc1)c1ccc2cn[nH]c2c1)c1ccccc1 | > 100 nM
* CC/C(=C(/c1ccc(/C=C/C(=O)O)cc1)c1ccc2[nH]ncc2c1)c1ccc(Oc2cccnc2)cc1 | ≤ 100 nM

Prompt: Query IC50 on MCF-7 cells for CC/C(=C(/c1ccc(/C=C/C(=O)O)cc1)c1ccc2[nH]ncc2c1)c1ccc(Oc2ccccn2)cc1
Completion: ≤ 100 nM

Prompt: Also CC/C(=C(/c1ccc(/C=C/C(=O)O)cc1)c1ccc2[nH]ncc2c1)c1cccc(Oc2ccncc2)c1 , if possible.
Completion: ≤ 100 nM

Prompt: Input CC/C(=C(/c1ccc(/C=C/C(=O)O)cc1)c1ccc2[nH]ncc2c1)c1ccc2occc2c1
Completion: ≤ 100 nM

Prompt: Similarly, CC/C(=C(/c1ccc(/C=C/C(=O)O)cc1)c1cnc2[nH]ncc2c1)c1ccccc1 ?
Completion: > 100 nM

Prompt: Now try CC/C(=C(/c1ccc(/C=C/C(=O)O)cc1)c1ccc2[nH]ncc2c1)c1cnccc1C .
Completion: > 100 nM

====

Molecular target: ER-α in MCF-7 cells (Homo sapiens)
Assay: Breast cancer cell ER-α in cell western assay (SP1)
Format: cell-based
Parameters: endogenous in cells; host or cells: MCF-7
Settings: SP1 antibody, 4 or 24 hr post compound addition, read-out: ER-α In Cell Western Assay (SP1) IC50
Recorded DC50 for the following compounds

Check out these entries, answers already filled in.
• CC/C(=C(/c1ccc(OCCN2CCCC2)cc1)c1ccc2[nH]ncc2c1)c1ccccc1 [Compound 191] = ≤ 100 nM
• CC/C(=C(/c1ccc(/C=C/C(=O)O)cc1)c1ccc2c(cnn2C(C)=O)c1)c1ccc(F)cc1Cl [Compound 403] = ≤ 100 nM
• CC/C(=C(/c1ccc(/C=C/C(=O)O)cc1)c1ccc2[nH]ncc2c1)c1cccc(Oc2nccs2)c1 [Compound 370] = ≤ 100 nM
• CC/C(=C(/c1ccc(/C=C/C(=O)O)cc1)c1ccc2[nH]ncc2c1)c1ccc(-c2cncnc2)cc1 [Compound 383] = > 100 nM
• CC/C(=C(/c1ccc(/C=C/C(=O)NS(=O)(=O)c2cccnc2)cc1)c1ccc2[nH]ncc2c1)c1ccc(F)cc1Cl [Compound 433] = ≤ 100 nM

Alright, here's another compound for you.
Prompt: Requested read-out DC50, target or system ER-α in MCF-7 cells (Homo sapiens), entry CC/C(=C(/c1ccc(/C=C/C(=O)O)cc1)c1ccc2[nH]ncc2c1)c1cccc(Oc2ccncn2)c1 [Compound 364]
Completion: ≤ 100 nM

====

Molecular target: ER-α in MCF-7 cells (Homo sapiens)
Assay: Breast cancer cell ER-α in cell western assay (SP1)
Type: cell-based
Design: endogenous in cells; host or cells: MCF-7
Details: SP1 antibody, 4 or 24 hr post compound addition, read-out: ER-α In Cell Western Assay (SP1) IC50
value_kind: DC50

Example compounds with recorded DC50:
• Cc1cscc1/C(=C(\c1ccc(/C=C/C(=O)O)cc1)c1ccc2[nH]ncc2c1)C(C)C = ≤ 100 nM
• CC/C(=C(/c1ccc(/C=C/C(=O)O)cc1)c1ccn2ncnc2c1)c1ccccc1 = > 100 nM
• CC/C(=C(/c1ccc(/C=C/C(=O)O)cc1)c1ccc2[nH]ncc2c1)c1cnccc1C(F)(F)F = ≤ 100 nM

Prompt: Fill blank: measured DC50 of the compound CC/C(=C(/c1ccc(/C=C/c2nn[nH]n2)cc1)c1ccc2[nH]ncc2c1)c1ccccc1Cl is ____.
Completion: ≤ 100 nM

Prompt: Same question for CC/C(=C(/c1ccc(/C=C/C(=O)O)cc1)c1ccc2[nH]ncc2c1)c1ccc2cn[nH]c2c1 please.
Completion: > 100 nM

Prompt: Note, next up: CC/C(=C(/c1ccc(/C=C/C(=O)O)cc1)c1ccc2[nH]ncc2c1)c1ccc(CC(=O)O)cc1
Completion: > 100 nM

Prompt: Next: CC/C(=C(/c1ccc(/C=C/c2nsc(=O)[nH]2)cc1)c1ccc2[nH]ncc2c1)c1ccccc1
Completion: ≤ 100 nM

Prompt: Note, next up: CC/C(=C(/c1ccc(/C=C/C(=O)O)cc1)c1ccc2[nH]ncc2c1)c1ccc(OCCOC)cc1
Completion: ≤ 100 nM

Prompt: Would you kindly repeat that for CC/C(=C(/c1ccc(/C=C/C(=O)O)cc1)c1ccc2scnc2c1)c1cccc(Oc2cnccn2)c1 ?
Completion: ≤ 100 nM

Prompt: Then what about the compound Cc1cscc1/C(CC(C)C)=C(\c1ccc(/C=C/C(=O)O)cc1)c1ccc2[nH]ncc2c1 ?
Completion: ≤ 100 nM

Prompt: Quick one: CC/C(=C(/c1ccc(/C=C/c2nn[nH]n2)cc1)c1ccc2[nH]ncc2c1)c1ccccc1
Completion: ≤ 100 nM

====

Target: ER-α in MCF-7 cells (Homo sapiens, UniProt P03372)
Sequence (P03372 whole entry): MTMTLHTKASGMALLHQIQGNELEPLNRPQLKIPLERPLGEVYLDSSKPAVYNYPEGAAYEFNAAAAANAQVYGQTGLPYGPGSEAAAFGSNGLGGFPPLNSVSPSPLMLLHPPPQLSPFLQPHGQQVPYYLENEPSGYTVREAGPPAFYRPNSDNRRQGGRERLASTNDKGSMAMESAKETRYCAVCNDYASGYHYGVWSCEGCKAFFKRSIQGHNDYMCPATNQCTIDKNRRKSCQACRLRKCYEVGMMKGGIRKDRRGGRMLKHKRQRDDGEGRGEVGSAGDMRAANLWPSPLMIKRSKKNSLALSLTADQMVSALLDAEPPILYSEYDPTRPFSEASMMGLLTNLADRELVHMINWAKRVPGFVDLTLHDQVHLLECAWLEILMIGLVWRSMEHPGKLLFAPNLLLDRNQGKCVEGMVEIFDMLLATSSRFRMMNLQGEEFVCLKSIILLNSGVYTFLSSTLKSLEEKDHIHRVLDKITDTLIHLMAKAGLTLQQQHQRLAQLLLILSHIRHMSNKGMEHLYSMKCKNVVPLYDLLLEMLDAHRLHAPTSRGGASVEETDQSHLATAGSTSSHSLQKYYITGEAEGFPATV
Experiment: Breast cancer cell ER-α in cell western assay (SP1)
Type: cell-based
Design: endogenous in cells; host or cells: MCF-7
Conditions: SP1 antibody, 4 or 24 hr post compound addition, read-out: ER-α In Cell Western Assay (SP1) IC50
Catalogue of DC50 readings, one per entry.

Examples from the recorded data:
• CC/C(=C(/c1ccc(/C=C/C(=O)NS(C)(=O)=O)cc1)c1ccc2c(cnn2C)c1)c1ccc(F)cc1Cl = ≤ 100 nM
• CC/C(=C(/c1ccc(/C=C/C(=O)NS(C)(=O)=O)cc1)c1ccc2scnc2c1)c1ccc(F)cc1Cl = ≤ 100 nM

Prompt: Query (compound): O=C(O)/C=C/c1ccc(/C(=C(\c2ccccc2)C2CC2)c2cccc3[nH]ncc23)cc1 ; field requested: DC50
Completion: ≤ 100 nM

Prompt: And the next one, CC/C(=C(/c1ccc(/C=C/C(=O)O)cc1)c1ccc2[nH]ncc2c1)c1ccccn1 ?
Completion: > 100 nM

Prompt: Can you check CC/C(=C(/c1ccc(/C=C/C(=O)O)cc1)c1ccc2[nH]ncc2c1F)c1ccc(Oc2ncccn2)cc1 next?
Completion: ≤ 100 nM

====

In this section we review reported Emax values for a set of compounds.
Target: ER-α in MCF-7 cells (Homo sapiens)
Experiment: Breast cancer cell ER-α in cell western assay (SP1)
Assay type: cell-based
Set-up: endogenous in cells; host or cells: MCF-7
Details: MCF7, SP1 antibody, 4 or 24 hr post compound addition, read-out: ER-α In Cell Western Assay (SP1) Max Response

Example entries begin here.
• CC/C(=C(/c1ccc(/C=C/C(=O)O)cc1)c1ccn2cnnc2c1)c1ccccc1 = < 40%
• O=C(O)/C=C/c1ccc(/C(=C(\c2ccccc2Cl)C2CC2)c2cccc3[nH]ncc23)cc1 = ≥ 40%
• CC/C(=C(/c1ccc(/C=C/C(=O)O)cc1)c1ccc2[nH]ncc2c1)c1cccc(Oc2cccc(S(C)(=O)=O)c2)c1 = ≥ 40%

Prompt: State the recorded Emax for this entry: CC/C(=C(/c1ccc(/C=C/C(=O)O)cc1)c1ccc2[nH]ncc2c1)c1cccc(-c2cccnc2)c1
Completion: ≥ 40%
